Data origin: patent EP3354264A1

# Tested on: panel of nine N. gonorrhoeae isolates (strain NCCP11945 and eight isolates from Public Health England)
# test-description: Minimum bactericidal concentration by log reduction, panel of isolates
# Assay type: cell-based
# test-parameters: Neisseria gonorrhoeae, 2 min; lowest concentration tested giving an average 4 log10 reduction after two minute exposure; nine isolates; read-out: Minimum bactericidal concentration
assay-metric: MBC (µM)
Respond numerically; units are µM and should not be typed.

Just so you know, measured MBC for CCCCCC/C=C\CCCCCCCC(=O)O came out at 500

Just so you know, measured MBC for CCCCCCCCCC(=O)OCC(O)CO (centres unmarked) came out at 500

Just so you know, measured MBC for CC/C=C\C/C=C\C/C=C\CCCCCCCC(=O)O came out at 500

Just so you know, measured MBC for CCCCCCCCCCCCC(=O)O came out at 750

Just so you know, measured MBC for CCCC/C=C\CCCCCCCC(=O)O [Myristoleic acid 14:1 cΔ9, (Z)-tetradec-9-enoic acid] came out at 500
